- system: Human σ1 receptor (Homo sapiens, UniProt Q99720)
- Construct: expressed in transfected cells; host or cells: HEK-293
- Sequence (Q99720 whole entry): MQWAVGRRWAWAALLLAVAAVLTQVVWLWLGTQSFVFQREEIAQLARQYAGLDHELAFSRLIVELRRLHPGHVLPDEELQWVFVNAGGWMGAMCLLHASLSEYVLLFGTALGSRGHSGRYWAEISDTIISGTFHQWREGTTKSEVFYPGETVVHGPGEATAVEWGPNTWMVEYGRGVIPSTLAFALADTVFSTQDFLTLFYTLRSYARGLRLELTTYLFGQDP
- measurement-description: Human σ1 receptor radioligand assay ([3H](+)-pentazocine binding)
- experimental-context: binding to the σ1 receptor, expressed as Ki class; + also covers inhibition between 1% and 50%
pKi: −log10 of the molar value.
Would you mind telling me the reported pKi of each entry?

As a guide, the following entries are already answered.
1) CCC[C@H](c1nc2ccncc2c(=O)n1CC)N1CCNC[C@@H](C)C1 [Example 165] : < 6.00
2) CCC[C@H](c1nc2ccncc2c(=O)n1CC)N1CCN(C)C[C@@H](C)C1 [Example 168] : < 6.00
3) CCC[C@H](c1nc2ccc(F)cc2c(=O)n1C)N1CCN[C@@H](C)CC1 [Example 256] : > 6.30
4) CCCC(c1nc2cc(F)c(Br)cc2c(=O)n1CCC)N1CCCN(C)CC1 (centres unmarked) [Example 26] : > 6.30
5) CCC[C@H](c1nc2cc(F)c(Br)cc2c(=O)n1CC)N1CCNC[C@@H](C)C1 [Example 97] : 6.00 to 6.30

Provide the reported pKi of each entry below, same order.
1. CCCC(c1nc2cc(Cl)c(Cl)cc2c(=O)n1CC)N1CCCN(C)CC1 (centres unmarked) [Example 87]
2. CCC[C@H](c1nc2ccc(Cl)cc2c(=O)n1C)N1CCN[C@@H](C)CC1 [Example 246]
3. CCC[C@@H](c1nc2ccc(Br)cc2c(=O)n1CC)N1CC[C@H](C)N(C)CC1 [Example 263]

1: > 6.30; 2: > 6.30; 3: < 6.00
